Target: human PAH with the R408W mutation (A375 R408W cells) (Homo sapiens, UniProt P00439, R408W)
Construct: expressed in transfected cells
Sequence (P00439 whole entry R408W): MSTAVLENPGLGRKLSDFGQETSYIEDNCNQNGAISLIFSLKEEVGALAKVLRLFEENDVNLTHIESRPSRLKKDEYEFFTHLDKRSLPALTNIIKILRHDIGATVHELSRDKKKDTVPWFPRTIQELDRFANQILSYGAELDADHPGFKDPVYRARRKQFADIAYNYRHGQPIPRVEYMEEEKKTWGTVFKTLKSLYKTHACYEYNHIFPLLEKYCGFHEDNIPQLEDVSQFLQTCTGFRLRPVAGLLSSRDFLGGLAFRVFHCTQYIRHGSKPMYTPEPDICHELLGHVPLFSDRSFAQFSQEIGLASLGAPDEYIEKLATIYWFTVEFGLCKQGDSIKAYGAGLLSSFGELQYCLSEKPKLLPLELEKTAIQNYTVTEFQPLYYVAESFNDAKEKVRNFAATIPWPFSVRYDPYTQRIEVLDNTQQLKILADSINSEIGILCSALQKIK
Assay: Cell Based Phenylalanine Flux Assay
Conditions: A375 R408W cells; 24 hrs with compound, then 20 μM sepiapterin and 800 μM 13C9,15N-Phenylalanine for 4 hours; 13C-Tyrosine by LC-MS; average where tested multiple times

- Compound: "O=C(c1nnc(-c2ccccn2)o1)N1CCc2[nH]cnc2[C@H]1c1nc2ccc(F)c(F)c2o1 [Example 546]"
  System Name: "human PAH with the R408W mutation (A375 R408W cells) (Homo sapiens, UniProt P00439, R408W)"
  AC50: "500 to 1000 nM"
- Compound: "Cc1ccc2oc([C@H]3c4nc[nH]c4CCN3C(=O)c3oc(C(C)(C)O)nc3C)nc2c1 [Example 332]"
  System Name: "human PAH with the R408W mutation (A375 R408W cells) (Homo sapiens, UniProt P00439, R408W)"
  AC50: "1000 to 5000 nM"
- Compound: "CC(C)(C)c1nc(C(F)F)c(C(=O)N2CCc3[nH]cnc3[C@H]2c2nc3cc(F)ccc3o2)o1 [Example 753]"
  System Name: "human PAH with the R408W mutation (A375 R408W cells) (Homo sapiens, UniProt P00439, R408W)"
  AC50: "≤ 500 nM"
- Compound: "Cn1nc(Cl)nc1C(=O)N1CCc2[nH]cnc2[C@@H]1c1nc2c(F)cccc2o1 [Example 278]"
  System Name: "human PAH with the R408W mutation (A375 R408W cells) (Homo sapiens, UniProt P00439, R408W)"
  AC50: "1000 to 5000 nM"
- Compound: "O=C(c1ocnc1C(F)F)N1CCc2[nH]cnc2[C@@H]1c1nc2cc(Cl)cc(F)c2o1 [Example 607]"
  System Name: "human PAH with the R408W mutation (A375 R408W cells) (Homo sapiens, UniProt P00439, R408W)"
  AC50: "≤ 500 nM"
- Compound: "Cn1cc(-c2ccc3c(C(=O)N4CCc5[nH]cnc5[C@@H]4c4nc5cccc(F)c5o4)cnn3c2)cn1 [Example 384]"
  System Name: "human PAH with the R408W mutation (A375 R408W cells) (Homo sapiens, UniProt P00439, R408W)"
  AC50: "1000 to 5000 nM"
- Compound: "Cn1cnc(-c2nc(C(F)(F)F)c(C(=O)N3CCc4[nH]cnc4[C@H]3c3nc4cc(F)ccc4o3)o2)c1 [Example 790]"
  System Name: "human PAH with the R408W mutation (A375 R408W cells) (Homo sapiens, UniProt P00439, R408W)"
  AC50: "500 to 1000 nM"
- Compound: "O=C(c1cnn2cc(F)c(Cl)cc12)N1CCc2[nH]cnc2[C@H]1c1nc2cc(F)ccc2o1 [Example 219]"
  System Name: "human PAH with the R408W mutation (A375 R408W cells) (Homo sapiens, UniProt P00439, R408W)"
  AC50: "≤ 500 nM"
- Compound: "Cc1cccc2oc([C@@H]3c4nc[nH]c4CCN3C(=O)c3oc(C(C)(C)O)nc3C(F)F)nc12 [Example 361]"
  System Name: "human PAH with the R408W mutation (A375 R408W cells) (Homo sapiens, UniProt P00439, R408W)"
  AC50: "≤ 500 nM"
- Compound: "Cn1cc(-c2nnc(C(=O)N3CCc4[nH]cnc4[C@@H]3c3nc4c(F)cccc4o3)o2)cn1 [Example 198]"
  System Name: "human PAH with the R408W mutation (A375 R408W cells) (Homo sapiens, UniProt P00439, R408W)"
  AC50: "1000 to 5000 nM"
- Compound: "CC(C)(O)c1nc(Cl)c(C(=O)N2CCc3[nH]cnc3[C@H]2c2nc3c(F)cccc3o2)o1 [Example 274]"
  System Name: "human PAH with the R408W mutation (A375 R408W cells) (Homo sapiens, UniProt P00439, R408W)"
  AC50: "500 to 1000 nM"
- Compound: "O=C(c1ocnc1C(F)F)N1CCc2[nH]cnc2[C@@H]1c1nc2c(Cl)cccc2o1 [Example 438]"
  System Name: "human PAH with the R408W mutation (A375 R408W cells) (Homo sapiens, UniProt P00439, R408W)"
  AC50: "≤ 500 nM"
- Compound: "O=C(c1ccnn1C1CC1)N1CCc2[nH]cnc2[C@@H]1c1nc2cccc(F)c2o1 [Example 728]"
  System Name: "human PAH with the R408W mutation (A375 R408W cells) (Homo sapiens, UniProt P00439, R408W)"
  AC50: "≥ 5000 nM"
- Compound: "Cn1cncc1-c1nc(C(F)F)c(C(=O)N2CCc3[nH]cnc3[C@@H]2c2nc3ccccc3o2)o1 [Example 763]"
  System Name: "human PAH with the R408W mutation (A375 R408W cells) (Homo sapiens, UniProt P00439, R408W)"
  AC50: "1000 to 5000 nM"
- Compound: "CN(C)C(C)(C)c1nc(C(F)F)c(C(=O)N2CCc3[nH]cnc3[C@H]2c2nc3cc(F)ccc3o2)o1 [Example 291]"
  System Name: "human PAH with the R408W mutation (A375 R408W cells) (Homo sapiens, UniProt P00439, R408W)"
  AC50: "≤ 500 nM"

###

Molecular target: human PAH with the R408W mutation (A375 R408W cells) (Homo sapiens, UniProt P00439, R408W)
Construct: expressed in transfected cells
Assay: Cell Based Phenylalanine Flux Assay
Conditions: A375 R408W cells; 24 hrs with compound, then 20 μM sepiapterin and 800 μM 13C9,15N-Phenylalanine for 4 hours; 13C-Tyrosine by LC-MS; average where tested multiple times

- Cpd Smiles: "O=C(c1oc(-c2ccc(F)cn2)nc1C(F)F)N1CCc2[nH]cnc2[C@@H]1c1nc2cc(F)ccc2o1"
  AC50: "≤ 500 nM"
- Cpd Smiles: "O=C(c1ocnc1C(F)(F)F)N1CCc2[nH]cnc2[C@@H]1c1nc2ccc(F)cc2o1"
  AC50: "1000 to 5000 nM"
- Cpd Smiles: "Cc1nc(C(C)(C)O)oc1C(=O)N1CCc2[nH]cnc2[C@@H]1c1nc2cccc(F)c2o1"
  AC50: "1000 to 5000 nM"
- Cpd Smiles: "COc1cc(F)cc2nc([C@@H]3c4nc[nH]c4CCN3C(=O)c3oc(C(C)(C)O)nc3C(F)F)oc12"
  AC50: "≤ 500 nM"
- Cpd Smiles: "Cn1ccc(-c2nnc(C(=O)N3CCc4[nH]cnc4[C@@H]3c3nc4cccc(F)c4o3)o2)n1"
  AC50: "500 to 1000 nM"
- Cpd Smiles: "CC(C)(O)c1nc(C(F)F)c(C(=O)N2CCc3[nH]cnc3[C@H]2c2nc3cc(Br)cc(F)c3o2)o1"
  AC50: "≤ 500 nM"
- Cpd Smiles: "CNc1cn2ncc(C(=O)N3CCc4[nH]cnc4[C@@H]3c3nc4cc(F)ccc4o3)c2cc1Cl"
  AC50: "1000 to 5000 nM"

All values here come from patent US20250171437A1.
